- System: Influenza A virus H3N2
- testProtocol: Antiviral activity against Influenza A virus H3N2 infected in MDCK cells assessed as inhibition of virus-induced cytopathic effect after 40 hrs
- Type: functional, cell-based
valueType: IC50 (µg/mL)
Response body: numeric value in µg/mL, unit text excluded.

The cases that follow already have their IC50 on record.
>  <compound>
C=C(C(=O)OC)[C@@H]1CC[C@H](C)[C@H]2C(=C(C)C(=O)[C@@H]2C(O)c2ccc(N(C)C)cc2)C1 (single isomer, unassigned)

>  <IC50 [µg/mL]>
18.5

$$$$
>  <compound>
C=C(C(=O)OC)[C@@H]1CC[C@H](C)[C@H]2C(=C(C)C(=O)[C@@H]2[C@H](O)/C=C(\C)CCC=C(C)C)C1

>  <IC50 [µg/mL]>
1.6

$$$$

Now consider a different compound.
## Input Query: IC50; subject: C=C(C(=O)OC)[C@@H]1CC[C@H](C)[C@H]2C(=C(C)C(=O)[C@@H]2C(O)c2ccccc2)C1 (single isomer, unassigned)
## Output 6

###

- testProtocol: Cytotoxicity against MDCK cells after 48 hrs by Reed and Muench analysis
- Assay type: cell-based, Canis lupus familiaris
- measurementContext: dog, read-out: TC50
Binarize CC50 at 48 h at 80 µg/mL; below is class 1, at or above is class 0.

>  <molecule>
C=C(C(=O)OC)[C@@H]1CC[C@H](C)[C@H]2C(=C(C)C(=O)[C@@H]2[C@@H](C)O)C1

>  <assignedCategory>
class 0

$$$$

## Input Does the reported CC50 at 48 h of the following molecule sit strictly below 80 µg/mL? C=C(C(=O)OC)[C@@H]1CC[C@H](C)[C@H]2C(=C(C)C(=O)[C@@H]2C(O)c2cc(OC)c(OC)c(OC)c2)C1 (single isomer, unassigned)
## Output class 0

## Input Does the reported CC50 at 48 h of the following molecule sit strictly below 80 µg/mL? C=C(C(=O)OC)[C@@H]1CC[C@H](C)[C@H]2C(=C(C)C(=O)[C@@H]2C(O)c2cc(Cl)cc(Cl)c2)C1 (single isomer, unassigned)
## Output class 1

## Input Does the reported CC50 at 48 h of the following molecule sit strictly below 80 µg/mL? C=C(C(=O)OC)[C@@H]1CC[C@H](C)[C@H]2C(=C(C)C(=O)[C@@H]2C(O)c2cc(F)cc(F)c2)C1 (single isomer, unassigned)
## Output class 1

## Input Does the reported CC50 at 48 h of the following molecule sit strictly below 80 µg/mL? C=C(C(=O)OC)[C@@H]1CC[C@H](C)[C@H]2C(=C(C)C(=O)[C@@H]2C(O)c2ccc(N(C)C)cc2)C1 (single isomer, unassigned)
## Output class 1

###

Recorded measurements of selectivity ratio, one per entry
- testProtocol: Selectivity index, ratio of TC50 for MDCK cells to IC50 for Influenza A virus H1N1 infected in MDCK cells
- Type: toxicity, cell-based
- measurementContext: dog, read-out: Selectivity Index
Lab note: record the figure alone, no unit after it.

>  <molecule>
C=C(C(=O)OC)[C@@H]1CC[C@H](C)[C@H]2C(=C(C)C(=O)[C@@H]2C(O)c2ccc(N(C)C)cc2)C1 (single isomer, unassigned)

>  <valueType>
selectivity ratio

>  <readoutValue>
3

$$$$
>  <molecule>
C=C(C(=O)OC)[C@@H]1CC[C@H](C)[C@H]2C(=C(C)C(=O)[C@@H]2[C@H](O)CC)C1

>  <valueType>
selectivity ratio

>  <readoutValue>
9

$$$$

Now consider a different molecule.
## Input Query: selectivity ratio; subject: "C=C(C(=O)OC)[C@@H]1CC[C@H](C)[C@H]2C(=C(C)C(=O)[C@@H]2[C@@H](C)O)C1"
## Output 5

Where do these numbers come from? They come from ChEMBL document CHEMBL3997818.
